Answer each item with its documented growth, % of control at 0.1 µM.
- System: NCI-H23
- test-summary: Antiproliferative activity against human NCI-H23 cells at 0.1 uM by SRB assay
- Format: functional
# output: bare number, implied unit %

Query block: growth, % of control at 0.1 µM for CCCCCCCCCCCCCCCC(=O)NCCC[N+](C)(C)C ?
Result block: 106

Query block: Next compound: CCCCCCCCCCCCCCCCCC(=O)NCC(C)(C)C[N+](C)(C)CC
Result block: 95.1

Query block: Then what about the compound C=CC[N+](C)(C)CCCN(C)C(=O)CCCCCCCCCCCCCCC ?
Result block: 93.2

Query block: Queued: CCCCCCCCCCCCCC(=O)N(C)CC[N+](CC)(CC)CC
Result block: 83.6

Query block: Repeat for the following compound: CCCCCCCCCCCCCCCC(=O)NCC(C)(C)C[N+](C)(C)CC
Result block: 108

Query block: Next compound: CCCCCCCCCCCCCCCCCC(=O)NCCC[N+](C)(C)C
Result block: 102

###

- Tested on: PC-3
- test-summary: Antiproliferative activity against human PC3 cells at 1 uM by SRB assay
- Assay type: functional
In plain terms, low growth, % of control at 1 µM, meaning strictly below 40%, gives 1, and everything else gives -1.

Query block: Is the reported growth, % of control at 1 µM for CCCCCCCCCCCCCCCC(=O)N(C)CC[N+](CC)(CC)CC strictly below 40%?
Result block: 1

Query block: // next record CCCCCCCCCCCCCC(=O)N(C)CC[N+](C)(C)C
Result block: 1

Query block: Repeat with CCCCCCCCCCCCCCCC(=O)N(C)CC[N+](C)(C)C
Result block: 1

Query block: And what about the molecule CCCCCCCCCCCCCCCCCC(=O)NCCC[N+](C)(C)C ?
Result block: -1

Query block: Repeat for the following molecule: CCCCCCCCCCCCCCCC(=O)N(C)CCC[N+](C)(C)Cc1ccccc1
Result block: -1

Query block: Now try C=CC[N+](C)(C)CCCN(C)C(=O)CCCCCCCCCCCCCCC .
Result block: -1

Query block: CCCCCCCCCCCCCC(=O)NCC(C)(C)C[N+](C)(C)C ?
Result block: -1

Query block: Param item: CCCCCCCCCCCCCCCC(=O)N(C)CC[N+](C)(C)CC
Result block: 1

Query block: Next record, please: CCCCCCCCCCCCCCCCCC(=O)NCC(C)(C)C[N+](C)(C)C
Result block: 1

Query block: Query CCCCCCCCCCCCCCCC(=O)N(C)CC[N+](CC)(CC)Cc1ccccc1 next
Result block: 1

Query block: Also, CCCCCCCCCCCCCCCC(=O)NCC(C)(C)C[N+](C)(C)CC please.
Result block: 1

Query block: Now this one: C=CC[N+](CC)(CC)CCN(C)C(=O)CCCCCCCCCCCCC
Result block: 1

Query block: Further, for C=CC[N+](C)(C)CC(C)(C)CNC(=O)CCCCCCCCCCCCCCCCC ?
Result block: 1

###

For each record, write down the corresponding growth, % of control at 1 µM.
- Tested on: NUGC-3
- test-summary: Antiproliferative activity against human NUGC3 cells at 1 uM by SRB assay
- Format: functional
Give the value in % but do not write % after it.

Query block: Request body: readout growth, % of control at 1 µM, system NUGC-3, query C=CC[N+](C)(C)CC(C)(C)CNC(=O)CCCCCCCCCCCCCCCCC . Return the value.
Result block: 65.2

Query block: Now consider CCCCCCCCCCCCCCCC(=O)N(C)CCC[N+](C)(C)Cc1ccccc1 .
Result block: 50.1

Query block: Proceed to CCCCCCCCCCCCCCCC(=O)NCCC[N+](C)(C)C
Result block: 72.8
